target: UniProt:Q96EB6; experiment: Enzyme-based Sirt1 inhibition assay at 10 μM; format: biochemical; conditions: read-out: % inhibition at 10 μM Sirt1, 10 μM, mean of three independent experiments
Sequence (Q96EB6 whole entry): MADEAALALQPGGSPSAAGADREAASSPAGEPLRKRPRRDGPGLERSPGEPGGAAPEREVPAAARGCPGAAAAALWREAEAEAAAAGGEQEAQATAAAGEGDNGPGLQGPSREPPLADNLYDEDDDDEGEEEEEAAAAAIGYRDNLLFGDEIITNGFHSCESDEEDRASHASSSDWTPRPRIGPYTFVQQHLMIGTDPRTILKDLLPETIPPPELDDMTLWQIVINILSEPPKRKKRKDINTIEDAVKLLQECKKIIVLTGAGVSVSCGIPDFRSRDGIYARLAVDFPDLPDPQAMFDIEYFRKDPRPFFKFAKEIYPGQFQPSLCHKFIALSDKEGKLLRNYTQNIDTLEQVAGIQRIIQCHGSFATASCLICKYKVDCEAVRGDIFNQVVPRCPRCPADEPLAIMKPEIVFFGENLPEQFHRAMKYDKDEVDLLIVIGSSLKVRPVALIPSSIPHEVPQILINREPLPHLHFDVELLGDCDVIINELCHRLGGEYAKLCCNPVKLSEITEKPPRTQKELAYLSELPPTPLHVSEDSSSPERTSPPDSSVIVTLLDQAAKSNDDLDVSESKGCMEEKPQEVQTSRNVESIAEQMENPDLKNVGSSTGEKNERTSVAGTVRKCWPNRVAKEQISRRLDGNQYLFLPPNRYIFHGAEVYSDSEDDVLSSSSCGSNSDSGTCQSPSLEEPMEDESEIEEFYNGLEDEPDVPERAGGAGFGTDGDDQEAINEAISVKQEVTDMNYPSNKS
// values below are reported inhibition at 10 µM
parameter: inhibition at 10 µM

>>> valuereported("COc1ccc(-c2nc3cc(C(=O)N[C@@H](Cc4c[nH]c5ccccc45)C(=O)O)ccc3n2C2CCCCC2)cc1")
"> 80%"
>>> valuereported("C[C@@H](C(=O)O)N1C(=O)C(=Cc2c[nH]nc2-c2ccc([N+](=O)[O-])cc2)SC1=S [Compound 13j]")
"< 30%"
>>> valuereported("O=C(N[C@@H](Cc1c[nH]c2ccccc12)C(=O)O)c1ccc2c(c1)nc(-c1c(F)cccc1Cl)n2C1CCCCC1")
"< 30%"
>>> valuereported("COc1ccc(-c2nc3cc(C(=O)N[C@@H](CC(C)C)C(=O)O)ccc3n2C2CCCCC2)cc1")
"> 80%"
>>> valuereported("O=C(O)[C@H](Cc1c[nH]c2ccccc12)N1C(=O)C(=Cc2c[nH]nc2-c2cc(F)cc(F)c2)SC1=S [Compound 13h]")
"> 80%"
>>> valuereported("C[C@@H](C(=O)O)N1C(=O)C(=Cc2c[nH]nc2-c2cc(F)cc(F)c2)SC1=S [Compound 13f]")
"< 30%"
>>> valuereported("COc1ccc(-c2n[nH]cc2C=C2SC(=S)N([C@@H](C)C(=O)O)C2=O)cc1 [Compound 13b]")
"< 30%"
>>> valuereported("O=C(O)[C@H](Cc1ccccc1)N1C(=O)C(=Cc2c[nH]nc2-c2cc(F)cc(F)c2)SC1=S [Compound 13g]")
"< 30%"
>>> valuereported("O=C(O)[C@H](Cc1c[nH]c2ccccc12)N1C(=O)C(=Cc2c[nH]nc2-c2ccc([N+](=O)[O-])cc2)SC1=S [Compound 13l]")
"> 80%"
>>> valuereported("O=C(N[C@@H](Cc1c[nH]c2ccccc12)C(=O)O)c1ccc2c(c1)nc(-c1ccc(F)cc1)n2C1CCCCC1")
"86.8%"
>>> valuereported("O=C(O)[C@H](Cc1ccccc1)N1C(=O)C(=Cc2c[nH]nc2-c2ccc([N+](=O)[O-])cc2)SC1=S [Compound 13k]")
"< 30%"
>>> valuereported("CC(C)C[C@H](NC(=O)c1ccc2c(c1)nc(-c1ccc(F)cc1)n2C1CCCCC1)C(=O)O")
"80.8%"
>>> valuereported("COc1ccc(-c2n[nH]cc2C=C2SC(=S)N([C@@H](Cc3ccccc3)C(=O)O)C2=O)cc1 [Compound 13c]")
"< 30%"
>>> valuereported("COc1ccc(-c2nc3cc(C(=O)N[C@H](C(=O)O)C(C)C)ccc3n2C2CCCCC2)cc1")
"> 80%"
>>> valuereported("C[C@H](NC(=O)c1ccc2c(c1)nc(-c1ccc(F)cc1)n2C1CCCCC1)C(=O)O")
"< 30%"
>>> valuereported("COc1ccc(-c2nc3cc(C(=O)N[C@@H](C)C(=O)O)ccc3n2C2CCCCC2)cc1")
"> 80%"
>>> valuereported("COc1ccc(-c2n[nH]cc2C=C2SC(=S)N([C@@H](Cc3c[nH]c4ccccc34)C(=O)O)C2=O)cc1 [Compound 13d]")
"> 80%"
>>> valuereported("CC(C)[C@H](NC(=O)c1ccc2c(c1)nc(-c1ccc(F)cc1)n2C1CCCCC1)C(=O)O")
"< 30%"
